Where do the numbers come from? From PubChem BioAssay AID1159580.

# experiment: chemical genetic growth profiling, strain panel (AID 1159580);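 note: tested at 20 µM; growth read once vehicle control cultures reached saturation at 30 °C; 1 = growth at the plate median or of vehicle wells; lower values mean less growth of the strain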
# settings: S. cerevisiae deletion strains, growth OD, locus YMR263W, strain SAP30, active compounds read low
The whole screen tested about 5,500 compounds, of which about 2,000 (36%) were called active. Inconclusive results (about 18%) are left out. Some of the results follow.
value-kind: normalized growth
Returns: the value as a bare number; no unit string appended.

Before answering, review these 5 worked examples.
Would you kindly share the measured normalized growth for CC(NCCC(c1ccccc1)c1ccccc1)c1ccccc1 (stereo not drawn) ? 0.942

Similarly, `c1ccc([C@H]2CN3CCSC3=N2)cc1` ? 1

Similarly, COc1cc2c(cc1OC)-c1c(oc3c4c(ccc3c1=O)OC(C(C)C)C4)CO2 (stereo not drawn) ? 0.984

Similarly, `COc1cccc(NC(N)=S)c1` ? 1.01

Similarly, `COc1cccc(OC)c1C(=O)N[C@@H]1C(=O)N2[C@@H]1SC(C)(C)[C@@H]2C(=O)O` ? 0.972

More entries:
Would you kindly share the measured normalized growth for `O=C(O)c1cc(=O)c2cccc(O)c2[nH]1` ? 0.975

Similarly, `CCOC(=O)c1cnc2nc(SC)nn2c1N` ? 0.983

Similarly, `CCCc1nc2c(C)cc(-c3nc4ccccc4n3C)cc2n1Cc1ccc(-c2ccccc2C(=O)O)cc1` ? 0.994

Similarly, `O=C(O)/C(=C/c1c(C(=O)O)[nH]c2cc(Cl)cc(Cl)c12)c1ccccc1` ? 0.979

Similarly, `COc1cc(C=Nc2ccc(F)cc2)cc(OC)c1OC` ? 1.01

Similarly, `Cc1cccc(C(=O)c2ccccc2C(=O)O)c1` ? 0.991

Similarly, `COc1cccc(Nc2nc3ccccc3s2)c1` ? 0.795

Similarly, `Cc1onc(-c2ccccc2Cl)c1C(=O)N[C@@H]1C(=O)N2[C@@H]1SC(C)(C)[C@@H]2C(=O)O` ? 1.02

Similarly, `CC(C)(C)c1ccc(CSc2nc(N)cc(=O)[nH]2)cc1` ? 1.01

Similarly, `NC(N)=NC(N)=Nc1ccccc1` ? 0.993

Similarly, `O=C(COC(=O)c1ccccc1C(=O)c1ccccc1)c1ccccc1` ? 0.902

Similarly, Cc1onc(-c2ccccc2)c1C(=O)NC1C(=O)N2[C@@H]1SC(C)(C)[C@@H]2C(=O)O (stereo partly drawn) ? 1.01

Similarly, COc1cc2c(cc1OC)[C@@H]1C(=O)c3ccc4c(c3O[C@@H]1CO2)CC(C(C)C)O4 (stereo partly drawn) ? 1

Similarly, `NCCc1c[nH]c2ccccc12` ? 0.995

Similarly, `COc1cccc(C(=O)N/N=C(/C)c2ccccc2O)c1` ? 0.969

Similarly, `CCN(CC)C(=O)N[C@@H]1C=C2c3cccc4[nH]cc(c34)C[C@H]2N(C)C1` ? 0.991

Similarly, `O=C(O)c1cc(=O)c2c(Cl)cc(Cl)cc2[nH]1` ? 1

Similarly, `CC(=O)N[C@@H](Cc1c[nH]c2ccccc12)C(=O)O` ? 0.998

---

# experiment: chemical genetic growth profiling, strain panel (AID 1159580)
# settings: S. cerevisiae deletion strains, growth OD, locus YEL061C, strain CIN8, active compounds read low
Screen size: about 5,500 compounds; about 2,000 (36%) were called active. Another 18% or so got no clear call; they are omitted. This is one part of the list.
value-kind: normalized growth
Returns: the value as a bare number; no unit string appended.

Would you kindly share the measured normalized growth for `COc1ccc(C(=O)c2ccccc2)c(O)c1O` ? 0.967

Similarly, COP(=O)(OC)OC(Br)C(Cl)(Cl)Br (stereo unspecified) ? 0.993

Next item in the queue.
Would you kindly share the measured normalized growth for `COC(=O)c1ccccc1CSc1nccc(C(F)(F)F)n1` ? 0.917

---

# experiment: chemical genetic growth profiling, strain panel (AID 1159580)
# settings: S. cerevisiae deletion strains, growth OD, locus YNR049C, strain mso1, active compounds read low
Hit rate of the full screen: of about 5,500 compounds, about 2,000 (36%) were called active. Roughly 18% stayed inconclusive and do not appear here. The list shows a part of the results.
value-kind: normalized growth
Returns: the value as a bare number; no unit string appended.

Before answering, review these 8 worked examples.
Would you kindly share the measured normalized growth for `COc1ccc(C(=O)c2ccccc2)c(O)c1O` ? 0.983

Similarly, `CN(C)CCc1c[nH]c2ccc(C[C@H]3COC(=O)N3)cc12` ? 1.01

Similarly, `CN(C)CCc1c[nH]c2ccc(CS(=O)(=O)N3CCCC3)cc12` ? 0.997

Similarly, `COc1cc2cc3c4cc(OC)c(OC)cc4cc[n+]3c(C)c2cc1OC` ? 1.04

Similarly, `CC1(C)S[C@@H]2[C@H](NC(=O)Cc3ccccc3)C(=O)N2[C@H]1C(=O)O` ? 1.01

Similarly, `Cc1onc(-c2c(Cl)cccc2Cl)c1C(=O)N[C@@H]1C(=O)N2[C@@H]1SC(C)(C)[C@@H]2C(=O)O` ? 0.991

Similarly, Cc1onc(-c2ccccc2)c1C(=O)NC1C(=O)N2[C@@H]1SC(C)(C)[C@@H]2C(=O)O (stereo not given in full) ? 1.02

Similarly, `COc1ccc(C(=O)c2ccc(O)cc2)c(O)c1O` ? 0.972

More entries:
Would you kindly share the measured normalized growth for `CCOc1ccc(C(=O)c2ccc(OC)c(O)c2O)cc1` ? 1.06

Similarly, `CC[C@H]1OC(=O)[C@H](C)[C@@H](O[C@H]2C[C@@](C)(OC)[C@@H](O)[C@H](C)O2)[C@H](C)[C@@H](O[C@@H]2O[C@H](C)C[C@H](N(C)C)[C@H]2O)[C@](C)(O)C[C@@H](C)[C@@H]2N[C@@H](COCCOC)O[C@H]([C@H]2C)[C@]1(C)O` ? 0.989

---

Here the recorded normalized growth is given for each entry.
# experiment: chemical genetic growth profiling, strain panel (AID 1159580)
# settings: S. cerevisiae deletion strains, growth OD, locus YLR357W, strain rsc2, active compounds read low
The campaign covered roughly 5,500 compounds. About 2,000 (36%) were called active. Inconclusive results (about 18%) are left out. The list shows a part of the results.
Returns: the value as a bare number; no unit string appended.

Would you kindly share the measured normalized growth for `NC(=O)N1c2ccccc2C=Cc2ccccc21` ? 1.09

More entries:
Would you kindly share the measured normalized growth for `CC[C@H]1OC(=O)[C@H](C)[C@@H](O[C@H]2C[C@@](C)(OC)[C@@H](O)[C@H](C)O2)[C@H](C)[C@@H](O[C@@H]2O[C@H](C)C[C@H](N(C)C)[C@H]2O)[C@](C)(O)C[C@@H](C)[C@@H]2N[C@@H](COCCOC)O[C@H]([C@H]2C)[C@]1(C)O` ? 0.958

Similarly, `Cc1cc(C(C)(C)C)cc(C)c1CC1=NCCN1` ? 1

Similarly, O=c1[nH]cnc2c1ncn2C1O[C@H](CO)[C@@H](O)[C@H]1O (some centres undefined) ? 0.971

---

# experiment: chemical genetic growth profiling, strain panel (AID 1159580);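 note: tested at 20 µM; growth read once vehicle control cultures reached saturation at 30 °C; 1 = growth at the plate median or of vehicle wells; lower values mean less growth of the strain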
# settings: S. cerevisiae deletion strains, growth OD, locus YDR335W, strain msn5, active compounds read low
About 2,000 (36%) of roughly 5,500 compounds were called active. Roughly 18% stayed inconclusive and do not appear here. Some of the results follow.
Here the recorded normalized growth is given for each entry.

Would you kindly share the measured normalized growth for `O=C(CCc1ccc(O)cc1)c1c(O)cc(O)cc1O[C@@H]1O[C@H](CO)[C@@H](O)[C@H](O)[C@H]1O` ? 1.01 (inactive)

Similarly, CC1=CC2C(C(C)C)CCC(C)(O)C2CC1 (stereo unspecified) ? 0.977 (inactive)

Similarly, `CCOc1ccc(NC(C)=O)cc1` ? 1.02 (inactive)

More entries:
Would you kindly share the measured normalized growth for `NC(=O)N1c2ccccc2C=Cc2ccccc21` ? 1.02 (inactive)

Similarly, `COc1ccc(C(=O)c2ccccc2)c(O)c1O` ? 0.97 (inactive)

---

# experiment: chemical genetic growth profiling, strain panel (AID 1159580);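 note: tested at 20 µM; growth read once vehicle control cultures reached saturation at 30 °C; 1 = growth at the plate median or of vehicle wells; lower values mean less growth of the strain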
# settings: S. cerevisiae deletion strains, growth OD, locus YEL037C, strain rad23, active compounds read low
About 2,000 (36%) of roughly 5,500 compounds were called active. About 18% were inconclusive and are not listed. This is one part of the list.
For each record, check the reported normalized growth: if it is below 1 write 1, else write -1.

Determine if `c1ccc2c(Cc3c[nH]c4ccccc34)c[nH]c2c1` shows normalized growth strictly lower than 1. 1

More entries:
Determine if `CO[C@@]1(NC(=O)Cc2cccs2)C(=O)N2C(C(=O)O)=C(COC(N)=O)CS[C@@H]21` shows normalized growth strictly lower than 1. 1

Similarly, C[C@]12CCC3C(CC[C@H]4C[C@H](OS(=O)(=O)O)CC[C@]34C)C1CCC2=O (stereo not given in full) ? -1

---

# experiment: chemical genetic growth profiling, strain panel (AID 1159580);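 note: tested at 20 µM; growth read once vehicle control cultures reached saturation at 30 °C; 1 = growth at the plate median or of vehicle wells; lower values mean less growth of the strain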
# settings: S. cerevisiae deletion strains, growth OD, locus YCL061C, strain MRC1 (second series), active compounds read low
The campaign covered roughly 5,500 compounds. About 2,000 (36%) were called active. Roughly 18% stayed inconclusive and do not appear here. The list shows a part of the results.
Here the recorded normalized growth is given for each entry.
Returns: the value as a bare number; no unit string appended.

Before answering, review these 5 worked examples.
Would you kindly share the measured normalized growth for `NCCc1c[nH]c2ccccc12` ? 0.998

Similarly, `CC(=O)Oc1ccccc1C(=O)O` ? 1

Similarly, `Cc1ccc(=O)n(-c2ccccc2)c1` ? 1

Similarly, Nc1ncnc2c1ncn2[C@@H]1O[C@H](C(=O)NC2CC2)[C@H](O)C1O (some centres not stated) ? 1

Similarly, `CC(=O)[C@@]1(O)CC[C@H]2[C@@H]3CCC4=CC(=O)CC[C@]4(C)[C@H]3CC[C@@]21C` ? 0.985

Next item in the queue.
Would you kindly share the measured normalized growth for `OCCN1CCN(CCCN2c3ccccc3Sc3ccc(C(F)(F)F)cc32)CC1` ? 0.957
